measured-on: hERG potassium channel (Homo sapiens, UniProt Q12809)
Construct: gene KCNH2
Sequence (Q12809 whole entry): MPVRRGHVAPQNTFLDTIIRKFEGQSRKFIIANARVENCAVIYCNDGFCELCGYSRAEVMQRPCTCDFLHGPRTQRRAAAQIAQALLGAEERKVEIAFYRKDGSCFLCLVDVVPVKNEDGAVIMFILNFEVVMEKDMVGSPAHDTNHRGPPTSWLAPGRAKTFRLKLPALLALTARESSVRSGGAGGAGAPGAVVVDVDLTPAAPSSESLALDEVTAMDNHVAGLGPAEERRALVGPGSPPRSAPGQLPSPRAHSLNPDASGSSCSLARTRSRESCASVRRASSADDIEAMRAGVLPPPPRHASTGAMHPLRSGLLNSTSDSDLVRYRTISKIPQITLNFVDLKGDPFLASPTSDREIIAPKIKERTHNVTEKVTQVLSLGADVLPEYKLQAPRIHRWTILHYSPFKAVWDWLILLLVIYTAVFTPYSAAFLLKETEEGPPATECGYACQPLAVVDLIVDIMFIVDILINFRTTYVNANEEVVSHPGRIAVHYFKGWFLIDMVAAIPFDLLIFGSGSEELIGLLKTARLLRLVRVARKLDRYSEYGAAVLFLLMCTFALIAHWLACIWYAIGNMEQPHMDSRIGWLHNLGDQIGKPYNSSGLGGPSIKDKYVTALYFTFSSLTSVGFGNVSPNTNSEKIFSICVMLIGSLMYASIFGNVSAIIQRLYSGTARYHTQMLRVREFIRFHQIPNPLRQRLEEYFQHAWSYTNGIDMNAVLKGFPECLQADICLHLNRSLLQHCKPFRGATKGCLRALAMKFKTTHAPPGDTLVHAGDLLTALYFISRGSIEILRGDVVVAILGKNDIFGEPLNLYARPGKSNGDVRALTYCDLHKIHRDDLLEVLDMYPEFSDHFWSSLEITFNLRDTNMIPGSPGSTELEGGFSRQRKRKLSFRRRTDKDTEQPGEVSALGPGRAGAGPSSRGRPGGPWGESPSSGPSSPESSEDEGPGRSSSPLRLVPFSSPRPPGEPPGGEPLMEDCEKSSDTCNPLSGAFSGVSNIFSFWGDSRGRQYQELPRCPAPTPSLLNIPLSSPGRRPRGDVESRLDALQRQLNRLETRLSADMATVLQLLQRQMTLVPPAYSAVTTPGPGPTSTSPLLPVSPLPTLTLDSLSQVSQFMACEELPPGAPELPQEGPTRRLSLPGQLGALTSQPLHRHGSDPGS
experiment-description: in vitro
Parameters: hERG binding assay, [3H]astemizole displacement
recorded-conditions: read-out: %-Inhibition/[3H]Astemizole -5
value-kind: inhibition at 10 µM (%)
One number for each entry, in %.

Form: molecule = COc1ccccc1N1CCN(c2nc(NC(=O)C(C)(C)C)c(C(=O)c3ccccc3)s2)CC1 [KRO-105714] ; inhibition at 10 µM = 45

###

measured-on: hERG potassium channel (Homo sapiens)
Construct: gene KCNH2
experiment-description: in vitro
Parameters: hERG binding assay, [3H]astemizole displacement
recorded-conditions: read-out: %-Inhibition/[3H]Astemizole -6
value-kind: inhibition at 1 µM (%)
Give bare numbers, in %.

Lookup result for COc1ccccc1N1CCN(c2nc(NC(=O)C(C)(C)C)c(C(=O)c3ccccc3)s2)CC1 ; measured inhibition at 1 µM: 3

###

measured-on: UniProt:P10635
Sequence (P10635 whole entry): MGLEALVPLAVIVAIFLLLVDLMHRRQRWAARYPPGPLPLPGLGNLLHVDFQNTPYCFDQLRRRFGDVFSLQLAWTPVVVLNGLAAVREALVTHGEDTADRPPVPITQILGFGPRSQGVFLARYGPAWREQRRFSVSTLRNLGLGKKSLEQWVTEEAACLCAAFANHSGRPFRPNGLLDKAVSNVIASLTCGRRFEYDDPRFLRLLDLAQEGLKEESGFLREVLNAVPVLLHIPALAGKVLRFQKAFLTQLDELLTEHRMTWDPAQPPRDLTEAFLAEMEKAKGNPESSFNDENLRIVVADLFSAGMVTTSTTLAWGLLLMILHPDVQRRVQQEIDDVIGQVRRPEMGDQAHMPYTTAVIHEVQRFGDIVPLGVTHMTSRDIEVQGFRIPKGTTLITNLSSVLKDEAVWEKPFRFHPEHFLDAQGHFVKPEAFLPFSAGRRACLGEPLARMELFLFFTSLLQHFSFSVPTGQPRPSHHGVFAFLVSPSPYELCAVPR
experiment-description: biochemical
recorded-conditions: read-out: CYP450 IC50
value-kind: IC50

Field IC50 (entry COc1ccccc1N1CCN(c2nc(NC(=O)C(C)(C)C)c(C(=O)c3ccccc3)s2)CC1 ) reads > 10 µM
